Biological target: 5-hydroxytryptamine receptor 1F (Homo sapiens, UniProt P30939)
Experiment: Agonist activity at human 5HT1F receptor expressed in LM(tk-) cells by [35S]GTPgammaS binding assay
Could you please report measured pEC50 for the items listed next?
Field pEC50 (float): negative decimal logarithm of the concentration in molar.

Please fill in: pEC50 reported for CN1CCC(C(=O)c2cccc(NC(=O)c3ccc(F)cc3)c2F)CC1 = 7.26

Please fill in: pEC50 reported for CN1CCC(C(=O)c2cccc(NC(=O)c3ccc(F)cc3)c2)CC1 = 7.06

Please fill in: pEC50 reported for CN1CCC(C(=O)c2cccc(NC(=O)c3ccc(F)cc3)n2)CC1 = 6.96

====

Biological target: 5-HT1B/5-HT1F (Homo sapiens) (UniProt P30939+P28222)
Sequence (P28222 whole entry, looked up, one chain of several): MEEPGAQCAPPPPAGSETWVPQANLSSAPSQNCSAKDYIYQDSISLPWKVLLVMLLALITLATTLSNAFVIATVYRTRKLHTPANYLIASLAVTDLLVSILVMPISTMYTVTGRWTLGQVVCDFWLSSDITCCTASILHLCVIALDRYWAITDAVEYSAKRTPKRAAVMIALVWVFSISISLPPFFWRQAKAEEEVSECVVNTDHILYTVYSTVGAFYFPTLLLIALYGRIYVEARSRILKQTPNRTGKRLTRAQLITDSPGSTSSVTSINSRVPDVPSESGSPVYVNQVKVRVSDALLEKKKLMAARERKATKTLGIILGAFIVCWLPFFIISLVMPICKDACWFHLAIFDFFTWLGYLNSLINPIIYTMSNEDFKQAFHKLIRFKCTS
Assay: Selectivity index, ratio of Ki for human 5HT1B receptor to Ki for human 5HT1F receptor
Observable: Ratio Ki
Write the value as a bare number.

Please fill in: Ratio Ki reported for CN1CCC(C(=O)c2cccc(NC(=O)c3ccc(F)cc3)c2O)CC1 = 2.5

Please fill in: Ratio Ki reported for CN1CCC(C(=O)c2ccnc(NC(=O)c3ccc(F)cc3)c2)CC1 = 2

Please fill in: Ratio Ki reported for CN1CCC(C(=O)c2cccc(NC(=O)c3ccc(F)cc3)c2Cl)CC1 = 1.6

Please fill in: Ratio Ki reported for CN1CCC(c2c[nH]c3ccc(NC(=O)c4ccc(F)cc4)cc23)CC1 = 54

Please fill in: Ratio Ki reported for COc1c(NC(=O)c2ccc(F)cc2)cccc1C(=O)C1CCN(C)CC1 = 4.3

====

Target: 5-hydroxytryptamine receptor 1F (Homo sapiens, UniProt P30939)
Sequence (P30939 whole entry): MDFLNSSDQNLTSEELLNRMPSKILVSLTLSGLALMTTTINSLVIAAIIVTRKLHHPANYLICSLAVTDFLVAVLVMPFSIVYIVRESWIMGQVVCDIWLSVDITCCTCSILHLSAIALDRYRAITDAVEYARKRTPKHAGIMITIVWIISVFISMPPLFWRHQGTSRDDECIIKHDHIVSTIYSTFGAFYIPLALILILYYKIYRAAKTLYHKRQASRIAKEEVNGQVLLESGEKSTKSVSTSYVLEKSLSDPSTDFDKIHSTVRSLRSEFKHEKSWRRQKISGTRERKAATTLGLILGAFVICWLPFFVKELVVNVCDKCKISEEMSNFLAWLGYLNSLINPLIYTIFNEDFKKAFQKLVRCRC
Test: Binding affinity to human 5HT1F receptor by radioligand binding assay
# Satisfied = Ki below 40 nM (exclusive); Not satisfied = Ki at/above 40 nM

Exam item: Check if Ki falls below 40 nM for COc1c(NC(=O)c2ccc(F)cc2)cccc1C(=O)C1CCN(C)CC1 .
Marked response: Not satisfied

Exam item: Check if Ki falls below 40 nM for CN1CCC(C(=O)c2cccc(NC(=O)c3ccc(F)cc3)c2F)CC1 .
Marked response: Satisfied

Exam item: Check if Ki falls below 40 nM for CN1CCC(C(=O)c2cccc(NC(=O)c3ccc(F)cc3)n2)CC1 .
Marked response: Satisfied

Exam item: Check if Ki falls below 40 nM for CN1CCC(C(=O)c2cncc(NC(=O)c3ccc(F)cc3)c2)CC1 .
Marked response: Not satisfied

Exam item: Check if Ki falls below 40 nM for CN1CCC(C(=O)c2cccc(NC(=O)c3ccc(F)cc3)c2)CC1 .
Marked response: Satisfied

====

Target: 5-HT1A/5-HT1F (Homo sapiens) (UniProt P30939+P08908)
Sequence (P08908 whole entry, looked up, one chain of several): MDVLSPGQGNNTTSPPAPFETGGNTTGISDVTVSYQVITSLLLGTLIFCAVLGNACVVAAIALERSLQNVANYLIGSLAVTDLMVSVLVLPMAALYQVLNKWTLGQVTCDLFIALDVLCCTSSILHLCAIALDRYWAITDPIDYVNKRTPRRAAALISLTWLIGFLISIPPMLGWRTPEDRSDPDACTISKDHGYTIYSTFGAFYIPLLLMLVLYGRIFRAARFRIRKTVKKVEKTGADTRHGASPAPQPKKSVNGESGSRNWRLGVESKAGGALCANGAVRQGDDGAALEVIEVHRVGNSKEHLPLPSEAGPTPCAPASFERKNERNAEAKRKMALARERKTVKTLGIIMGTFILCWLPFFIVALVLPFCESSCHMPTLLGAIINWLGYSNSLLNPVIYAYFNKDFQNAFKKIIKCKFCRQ
Assay: Selectivity index, ratio of Ki for human 5HT1A receptor to Ki for human 5HT1F receptor
Give criterion met when the value for Ratio Ki is at least 5. Give criterion not met when it is less.

Exam item: Reported Ratio Ki reaches at least 5 for CN1CCC(C(=O)c2cccc(NC(=O)c3ccc(F)cc3)c2Cl)CC1 ?
Marked response: criterion not met

Exam item: Reported Ratio Ki reaches at least 5 for CN1CCC(C(=O)c2ccc(F)c(NC(=O)c3ccc(F)cc3)c2)CC1 ?
Marked response: criterion not met

Exam item: Reported Ratio Ki reaches at least 5 for COc1c(NC(=O)c2ccc(F)cc2)cccc1C(=O)C1CCN(C)CC1 ?
Marked response: criterion not met

Exam item: Reported Ratio Ki reaches at least 5 for CN1CCC(C(=O)c2cccc(NC(=O)c3ccc(F)cc3)n2)CC1 ?
Marked response: criterion met

Exam item: Reported Ratio Ki reaches at least 5 for CN1CCC(C(=O)c2cccc(NC(=O)c3ccc(F)cc3)c2)CC1 ?
Marked response: criterion met

====

Could you please report measured Ratio Ki for the items listed next?
Biological target: 5-HT1A/5-HT1F (Homo sapiens) (UniProt P30939+P08908)
Test: Selectivity index, ratio of Ki for human 5HT1A receptor to Ki for human 5HT1F receptor
Write the value as a bare number.

Known value: 5-HT1A/5-HT1F (Homo sapiens) (UniProt P30939+P08908) Ratio Ki of the compound CN1CCC(C(=O)c2cncc(NC(=O)c3ccc(F)cc3)c2)CC1 equals 1

Known value: 5-HT1A/5-HT1F (Homo sapiens) (UniProt P30939+P08908) Ratio Ki of the compound CN1CCC(C(=O)c2ccnc(NC(=O)c3ccc(F)cc3)c2)CC1 equals 0.7

Known value: 5-HT1A/5-HT1F (Homo sapiens) (UniProt P30939+P08908) Ratio Ki of the compound CN1CCC(C(=O)c2cc(F)cc(NC(=O)c3ccc(F)cc3)c2)CC1 equals 22

Origin of measurements: ChEMBL document CHEMBL3616417
